Source of measurements: patent US9518015B2

Target: human EP1 receptor (Homo sapiens, UniProt P34995)
Sequence (P34995 whole entry): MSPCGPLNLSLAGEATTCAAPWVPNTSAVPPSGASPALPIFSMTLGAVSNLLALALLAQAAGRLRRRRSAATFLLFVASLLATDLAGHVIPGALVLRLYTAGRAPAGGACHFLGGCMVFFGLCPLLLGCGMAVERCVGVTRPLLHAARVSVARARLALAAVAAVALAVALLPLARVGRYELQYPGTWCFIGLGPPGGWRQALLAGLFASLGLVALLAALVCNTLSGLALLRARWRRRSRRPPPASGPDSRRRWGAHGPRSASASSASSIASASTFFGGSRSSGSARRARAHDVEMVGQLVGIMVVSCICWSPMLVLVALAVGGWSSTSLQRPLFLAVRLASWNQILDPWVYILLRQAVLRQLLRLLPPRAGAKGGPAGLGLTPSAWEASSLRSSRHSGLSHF
Assay: Test 1: Human EP1 receptor radioligand binding assay ([3H]-PGE2, transfected HEK-293 cell membranes)
Design: expressed in transfected cells; host or cells: HEK-293 cell membranes
Settings: read-out: Results of Test 1 (Binding assay), % inh
Text: Test 1: Human EP1 Receptor Radioligand Binding Assay To investigate binding properties of EP1 receptor ligands to human EP1 receptor, transfected HEK-293 cell membranes and [3H]-PGE2 (Perkin Elmer) were used. […] Filters were dried and counted in a MicroBeta scintillation counter (Perkin-Elmer) using EcoScint liquid scintillation cocktail. […]
quantity-measured: inhibition at 10 µM

Solved cases below.
1. O=C(O)c1cccc2c1ccn2Cc1cc(Cl)ccc1OCc1cc(F)ccc1F
> 75%
2. CC(C)COc1ccc(Cl)cc1CN1CCOc2c(C(=O)O)cccc21
> 75%
3. O=C(O)c1cccc2c1ccn2Cc1cc(Cl)ccc1OCc1ccc(C(F)(F)F)cc1F
> 75%
4. O=C(O)c1cncc2c1CCCN2Cc1ccccc1OCc1ccc(Cl)cc1F
> 75%
5. O=C(O)c1cccc2c1ccn2Cc1cc(Cl)ccc1OCc1ccc(F)cc1Cl
> 75%
6. O=C(O)c1cccc2c1ccn2Cc1cc(F)ccc1OCc1ccc(F)cc1Cl
45 to 75%
7. O=C(O)c1cccc2c1ccn2Cc1cc(F)ccc1OCc1c(F)cccc1F
45 to 75%
8. O=C(O)c1ccc2c(ccn2Cc2cc(Br)ccc2OCc2ccc(F)cc2C(F)(F)F)c1
45 to 75%

Now consider the entry below.
inhibition at 10 µM reading for O=C(O)c1cccc2c1ccn2Cc1cc(Cl)ccc1OCc1ccccc1 : > 75%
